meta.source: patent US8624002B2

# procedure_text: Intrinsic thermodynamic stability by DSC
# Assay type: physicochemical
# details: same buffer
measurement_kind: Tm3 (° C.) (°C)
Field: numeric (°C). Do not append units.

Past entries and their recorded results:
{"columns": ["molecule", "reading"],
 "data": [
  ["Hu2B5.3: humanized 2B5-8.0; VH SEQ ID NO 64, VL SEQ ID NO 65 (antibody, V domains shown) VH: EVQLVQSGAEVKKPGASVKVSCKASGYTFTKYWLGWVRQAPGQGLEWIGDIYPGYDYTHYNEKFKDRATLTVDTSTSTAYMELRSLRSDDTAVYYCARSDGSSTYWGQGTLVTVSS VL: DVLMTQTPLSLPVTPGEPASISCTSSQNIVHSNGNTYLEWYLQKPGQSPQLLIYKVSNRFSGVPDRFSGSGSGTDFTLKISRVEAEDVGVYYCFQVSHVPYTFGGGTKVEIKR", 82.67],
  ["Hu2B5.1: humanized 2B5-8.0; VH SEQ ID NO 60, VL SEQ ID NO 61 (antibody, V domains shown) VH: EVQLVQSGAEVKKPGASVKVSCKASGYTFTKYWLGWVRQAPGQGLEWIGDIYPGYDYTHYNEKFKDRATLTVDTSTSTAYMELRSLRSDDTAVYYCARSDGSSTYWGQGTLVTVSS VL: DVVMTQTPLSLPVTPGEPASISCTSSQNIVHSNGNTYLEWYLQKPGQSPQLLIYKVSNRFSGVPDRFSGSGSGTDFTLKISRVEAEDVGVYYCFQVSHVPYTFGGGTKVEIKR", 82.785]
]}

Now, please, on to the next molecule.
[in] Name the recorded Tm3 (° C.) for Hu2B5.8: humanized 2B5-8.0; VH SEQ ID NO 74, VL SEQ ID NO 75 (antibody, V domains shown) VH: EVQLVQSGAEVKKPGASVKVSCKASGYTFTKYWLGWVRQAPGQGLEWMGDIYPGYDYTHYNEKFKDRVTLTTDTSTSTAYMELSSLRSDDTAVYYCARSDGSSTYWGQGTLVTVSS VL: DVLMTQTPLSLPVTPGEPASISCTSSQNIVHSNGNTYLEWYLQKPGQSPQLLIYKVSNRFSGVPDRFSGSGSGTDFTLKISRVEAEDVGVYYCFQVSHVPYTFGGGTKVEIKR .
[out] 82.83
